inhibition values by entry
- Test Protocol: Mycobacterium tuberculosis growth inhibition, primary screen (AID 1259343)
- Run Conditions: at 10 µM, hits give high values
Out of some 6,200 compounds screened, about 2,900 (47%) were called active. The set was probably picked from earlier hits. This is one part of the list.

Compound | inhibition
CC(Cc1ccccc1Cl)NC(=O)c1ccccn1 (stereo not given) | 70.5% (active)
O=c1c2c3c(sc2[nH]c(=S)n1CC1CCCO1)CCCC3 (stereo not given) | 68.2% (active)

Let us move to another entry and its inhibition.
Ask: Please report the measured inhibition for CC(=O)NC1CCN(Cc2nc(-c3cccc(Oc4ccccc4)c3)oc2C)C1 (stereo not given)
Reply: 24.9% (inactive)
